Test system: RARb homodimer (NR concentration 270 nM)
Experiment: PBM binding z-score (relative to random genomic background probes); higher = stronger binding; sequences stand for … in GC…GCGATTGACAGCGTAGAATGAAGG
Parameter threshold = 3. Response is true when PBM binding z-score meets or exceeds it, else false.

Incoming: PBM binding z-score >= 3 for CCTACCGGGCCAAAAAGGTCATTGATGCCGATAA ?
Outgoing: true

Incoming: PBM binding z-score >= 3 for CGTCCAAGGTCAAAGGTCAGTGATGAGATGACGG ?
Outgoing: true

Incoming: PBM binding z-score >= 3 for TCGAGTAGGTTACTCGGGGCATTCAGCCAACATA ?
Outgoing: false

Incoming: PBM binding z-score >= 3 for CGTCACAGTTCAAGGTAACGTAACAGAAAGCAGC ?
Outgoing: false
